Sourced from BigSolDB 2.1

EXPERIMENTAL_SETUP: in acetonitrile, 303.15 K
MEASURED_ATTRIBUTE: solubility (mole fraction)

Inquiry: # solubility (mole fraction) lookup, item CC(=O)O[C@H]1NC(=O)[C@@H]1[C@@H](C)O[Si](C)(C)C(C)(C)C
Reply text: 0.0792

====

EXPERIMENTAL_SETUP: in ethyl acetate, 303.15 K
MEASURED_ATTRIBUTE: solubility (mole fraction)
Answer field: number only, no words.

Inquiry: # solubility (mole fraction) lookup, item CC(=O)O[C@H]1NC(=O)[C@@H]1[C@@H](C)O[Si](C)(C)C(C)(C)C
Reply text: 0.198

====

EXPERIMENTAL_SETUP: in acetonitrile, 323.15 K
MEASURED_ATTRIBUTE: solubility (mole fraction)
Answer field: number only, no words.

Inquiry: # solubility (mole fraction) lookup, item CC(=O)O[C@H]1NC(=O)[C@@H]1[C@@H](C)O[Si](C)(C)C(C)(C)C
Reply text: 0.15

====

EXPERIMENTAL_SETUP: in chloroform, 298.15 K
MEASURED_ATTRIBUTE: solubility (mole fraction)
Answer field: number only, no words.

Inquiry: # solubility (mole fraction) lookup, item CC(=O)O[C@H]1NC(=O)[C@@H]1[C@@H](C)O[Si](C)(C)C(C)(C)C
Reply text: 0.266

====

EXPERIMENTAL_SETUP: in THF, 333.15 K
MEASURED_ATTRIBUTE: solubility (mole fraction)
Answer field: number only, no words.

Inquiry: # solubility (mole fraction) lookup, item CC(=O)O[C@H]1NC(=O)[C@@H]1[C@@H](C)O[Si](C)(C)C(C)(C)C
Reply text: 0.368

====

EXPERIMENTAL_SETUP: in cyclohexane, 318.15 K
MEASURED_ATTRIBUTE: solubility (mole fraction)
Answer field: number only, no words.

Inquiry: # solubility (mole fraction) lookup, item CC(=O)O[C@H]1NC(=O)[C@@H]1[C@@H](C)O[Si](C)(C)C(C)(C)C
Reply text: 0.0163

====

EXPERIMENTAL_SETUP: in chloroform, 308.15 K
MEASURED_ATTRIBUTE: solubility (mole fraction)
Answer field: number only, no words.

Inquiry: # solubility (mole fraction) lookup, item CC(=O)O[C@H]1NC(=O)[C@@H]1[C@@H](C)O[Si](C)(C)C(C)(C)C
Reply text: 0.291

====

EXPERIMENTAL_SETUP: in acetone, 318.15 K
MEASURED_ATTRIBUTE: solubility (mole fraction)
Answer field: number only, no words.

Inquiry: # solubility (mole fraction) lookup, item CC(=O)O[C@H]1NC(=O)[C@@H]1[C@@H](C)O[Si](C)(C)C(C)(C)C
Reply text: 0.233

====

EXPERIMENTAL_SETUP: in acetone, 298.15 K
MEASURED_ATTRIBUTE: solubility (mole fraction)
Answer field: number only, no words.

Inquiry: # solubility (mole fraction) lookup, item CC(=O)O[C@H]1NC(=O)[C@@H]1[C@@H](C)O[Si](C)(C)C(C)(C)C
Reply text: 0.166

====

EXPERIMENTAL_SETUP: in chloroform, 303.15 K
MEASURED_ATTRIBUTE: solubility (mole fraction)
Answer field: number only, no words.

Inquiry: # solubility (mole fraction) lookup, item CC(=O)O[C@H]1NC(=O)[C@@H]1[C@@H](C)O[Si](C)(C)C(C)(C)C
Reply text: 0.276

====

EXPERIMENTAL_SETUP: in n-butyl acetate, 303.15 K
MEASURED_ATTRIBUTE: solubility (mole fraction)
Answer field: number only, no words.

Inquiry: # solubility (mole fraction) lookup, item CC(=O)O[C@H]1NC(=O)[C@@H]1[C@@H](C)O[Si](C)(C)C(C)(C)C
Reply text: 0.163

====

EXPERIMENTAL_SETUP: in ethanol, 333.15 K
MEASURED_ATTRIBUTE: solubility (mole fraction)
Answer field: number only, no words.

Inquiry: # solubility (mole fraction) lookup, item CC(=O)O[C@H]1NC(=O)[C@@H]1[C@@H](C)O[Si](C)(C)C(C)(C)C
Reply text: 0.2

====

EXPERIMENTAL_SETUP: in n-butyl acetate, 333.15 K
MEASURED_ATTRIBUTE: solubility (mole fraction)
Answer field: number only, no words.

Inquiry: # solubility (mole fraction) lookup, item CC(=O)O[C@H]1NC(=O)[C@@H]1[C@@H](C)O[Si](C)(C)C(C)(C)C
Reply text: 0.326

====

EXPERIMENTAL_SETUP: in ethyl acetate, 323.15 K
MEASURED_ATTRIBUTE: solubility (mole fraction)

Inquiry: # solubility (mole fraction) lookup, item CC(=O)O[C@H]1NC(=O)[C@@H]1[C@@H](C)O[Si](C)(C)C(C)(C)C
Reply text: 0.294

====

EXPERIMENTAL_SETUP: in n-hexane, 303.15 K
MEASURED_ATTRIBUTE: solubility (mole fraction)
Answer field: number only, no words.

Inquiry: # solubility (mole fraction) lookup, item CC(=O)O[C@H]1NC(=O)[C@@H]1[C@@H](C)O[Si](C)(C)C(C)(C)C
Reply text: 0.00577

====

EXPERIMENTAL_SETUP: in acetonitrile, 298.15 K
MEASURED_ATTRIBUTE: solubility (mole fraction)
Answer field: number only, no words.

Inquiry: # solubility (mole fraction) lookup, item CC(=O)O[C@H]1NC(=O)[C@@H]1[C@@H](C)O[Si](C)(C)C(C)(C)C
Reply text: 0.0629

====

EXPERIMENTAL_SETUP: in THF, 303.15 K
MEASURED_ATTRIBUTE: solubility (mole fraction)
Answer field: number only, no words.

Inquiry: # solubility (mole fraction) lookup, item CC(=O)O[C@H]1NC(=O)[C@@H]1[C@@H](C)O[Si](C)(C)C(C)(C)C
Reply text: 0.251

====

EXPERIMENTAL_SETUP: in n-hexane, 313.15 K
MEASURED_ATTRIBUTE: solubility (mole fraction)
Answer field: number only, no words.

Inquiry: # solubility (mole fraction) lookup, item CC(=O)O[C@H]1NC(=O)[C@@H]1[C@@H](C)O[Si](C)(C)C(C)(C)C
Reply text: 0.0116

====

EXPERIMENTAL_SETUP: in ethyl acetate, 293.15 K
MEASURED_ATTRIBUTE: solubility (mole fraction)

Inquiry: # solubility (mole fraction) lookup, item CC(=O)O[C@H]1NC(=O)[C@@H]1[C@@H](C)O[Si](C)(C)C(C)(C)C
Reply text: 0.159

====

EXPERIMENTAL_SETUP: in methanol, 303.15 K
MEASURED_ATTRIBUTE: solubility (mole fraction)
Answer field: number only, no words.

Inquiry: # solubility (mole fraction) lookup, item CC(=O)O[C@H]1NC(=O)[C@@H]1[C@@H](C)O[Si](C)(C)C(C)(C)C
Reply text: 0.0809

====

EXPERIMENTAL_SETUP: in THF, 313.15 K
MEASURED_ATTRIBUTE: solubility (mole fraction)

Inquiry: # solubility (mole fraction) lookup, item CC(=O)O[C@H]1NC(=O)[C@@H]1[C@@H](C)O[Si](C)(C)C(C)(C)C
Reply text: 0.278

====

EXPERIMENTAL_SETUP: in ethanol, 303.15 K
MEASURED_ATTRIBUTE: solubility (mole fraction)
Answer field: number only, no words.

Inquiry: # solubility (mole fraction) lookup, item CC(=O)O[C@H]1NC(=O)[C@@H]1[C@@H](C)O[Si](C)(C)C(C)(C)C
Reply text: 0.072

====

EXPERIMENTAL_SETUP: in ethanol, 313.15 K
MEASURED_ATTRIBUTE: solubility (mole fraction)
Answer field: number only, no words.

Inquiry: # solubility (mole fraction) lookup, item CC(=O)O[C@H]1NC(=O)[C@@H]1[C@@H](C)O[Si](C)(C)C(C)(C)C
Reply text: 0.104

====

EXPERIMENTAL_SETUP: in ethanol, 298.15 K
MEASURED_ATTRIBUTE: solubility (mole fraction)

Inquiry: # solubility (mole fraction) lookup, item CC(=O)O[C@H]1NC(=O)[C@@H]1[C@@H](C)O[Si](C)(C)C(C)(C)C
Reply text: 0.0601

====

EXPERIMENTAL_SETUP: in toluene, 303.15 K
MEASURED_ATTRIBUTE: solubility (mole fraction)
Answer field: number only, no words.

Inquiry: # solubility (mole fraction) lookup, item CC(=O)O[C@H]1NC(=O)[C@@H]1[C@@H](C)O[Si](C)(C)C(C)(C)C
Reply text: 0.116

====

EXPERIMENTAL_SETUP: in methanol, 308.15 K
MEASURED_ATTRIBUTE: solubility (mole fraction)
Answer field: number only, no words.

Inquiry: # solubility (mole fraction) lookup, item CC(=O)O[C@H]1NC(=O)[C@@H]1[C@@H](C)O[Si](C)(C)C(C)(C)C
Reply text: 0.0959

====

EXPERIMENTAL_SETUP: in toluene, 318.15 K
MEASURED_ATTRIBUTE: solubility (mole fraction)
Answer field: number only, no words.

Inquiry: # solubility (mole fraction) lookup, item CC(=O)O[C@H]1NC(=O)[C@@H]1[C@@H](C)O[Si](C)(C)C(C)(C)C
Reply text: 0.186
